These measurements were taken from patent US20180251563A1.

ELISA ratio (target to background) by entry:
Biological target: T1, DR5-Fc (UniProt O14763 56-182, limits assumed)
T1 construct: purified recombinant target-Fc protein; not shown: Fc
T1 sequence (O14763 56-182 limits assumed): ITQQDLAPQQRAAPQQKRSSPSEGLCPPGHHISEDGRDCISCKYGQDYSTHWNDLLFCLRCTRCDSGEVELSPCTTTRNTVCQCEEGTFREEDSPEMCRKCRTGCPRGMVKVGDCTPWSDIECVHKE
Assay: phage ELISA, target-Fc against non-specific control
MEASURED METRIC: ELISA ratio (target to background) (ratio)

> print(dat)
                                     binder  result.value
1  SEQ ID NO 29 (designed binder) MGSWFYFKQHLAWIKSYLEALGGSEAELAHFERAIAAFEQHLQMYKGKGNPEVEALRKEAAAIRDELQAYRHN          11.8
2  SEQ ID NO 30 (designed binder) MGSWHYFKDHLAEIKGLLEALGGSEAELAHFEMAIADFEHNLQYYKGKGNPEVEALRKEAAAIRDELQAYRHN          11.4
3  SEQ ID NO 28 (designed binder) MGSWVYFKEHLAWIKTELEALGGSEAELAHFEHSIADFEMSLQFYKGKGNPEVEALRKEAAAIRDELQAYRHN          12.1
